Answer each item with its documented growth inhibition.
assay: NCI Yeast Anticancer Drug Screen. Data for the mlh1 rad18 strain (AID 175); conditions: S. cerevisiae mlh1 rad18 strain growth inhibition; at 50.0 µM; hits give high values
Compounds without any hit were thinned out: in the full panel of roughly 79,000, 15% have a hit.
Answer with a number only, understood to be in %.

Give its growth inhibition value. Item: COC1OCC(NC(=O)CNC(=O)CCCCCCCCCCCCC(C)C)C(O)C1O (stereo unspecified) 18.6

Consider next the molecule `O=S1(=O)C=C(Br)CO1` in the same way. -15.7

Entry to check: `CC1=C(C(=O)N(C)c2ccc(Cl)c(C(=O)OC(C)C)c2)SCCO1` -28.1

Next up: NC(=O)N/N=C(\c1ccccc1)C1CCCCc2ccccc21 (stereo unspecified) 48

Thanks! And `O=C(Cc1c[nH]c2ccccc12)N/N=C/c1ccccc1[N+](=O)[O-]` ? 17.3

// next record COc1ccc(CC2c3cc(OC)c(OC)cc3CCN2C(=O)OCc2ccccc2)cc1OC (stereo unspecified) 12.1

###

assay: NCI Yeast Anticancer Drug Screen. Data for the bub3 strain (AID 167); details: S. cerevisiae bub3 mutant strain, at 50.0 µM
This is part of a sample that, as a whole, favours compounds with a hit. Of some 79,000 tested, about 15% had one in any assay. Calls of active or inactive are those of the source. Rule as the data show it: active = growth inhibition above about 70%; inactive = the rest.
Your response should consist of one outcome taken from 1 for active, -1 for inactive

So what was the verdict on `O=c1[nH]c2cc([N+](=O)[O-])ccc2nc1/C=C(\O)c1ccco1` in this test? -1

And `O=S(=O)(c1ccccc1)N1CCN(S(=O)(=O)c2ccccc2)c2ccccc21` ? -1

Moving on to `CC(C)CCN(C=O)c1ccccc1` -1

What would you report for `O=c1[nH]cc(COCC(F)(F)C(F)(F)C(F)(F)C(F)F)c(=O)[nH]1` ? -1

Repeat for the following compound: `CCOC(=O)COc1cc2c(cc1Cc1ccc3c(c1)OCO3)OCO2` -1

One more compound: `CCOC(=S)SCCSC` -1

Follow-up entry: `Cc1cc(OCC(=O)O)c(Cl)cc1Cl` -1

Could you do the same for `COc1c(OC(C)=O)cc(Cl)c(C=O)c1[N+](=O)[O-]` , please? -1

What about `O=C(c1ccccc1)N(Cc1ccccc1)Cc1ccccc1` ? -1

How about this compound: `COc1ccc2[nH]c(=O)ccc2c1` -1

And then `C/C(Nc1ccc(F)cc1)=C1/CCOC1=O` , what is it? -1

`O=C1CCCCCN1` ? -1

Also `CN1CCS(=O)(=O)CC1` ? -1

Next: CC1Cn2c(nnc2-c2ccccc2O)S1 (stereo unspecified) -1

Next: `Cc1ccc(N=Nc2ccc(C)cc2NC(=O)Nc2cc(C)ccc2C)cc1` -1

// repeat for `O=c1ccc2cc(Br)ccc2o1` and report -1

Follow-up item: `COc1ccccc1Br` -1

Another: `CCOC(=O)c1ccc(NC(NC(=O)CC)(C(F)(F)F)C(F)(F)F)cc1` -1

What do you have for `O=C1c2ccccc2-c2nc(/C=C/c3ccccc3)cc3c2c1nc1ccccc13` ? -1

Same lookup for CC12CCC3C(CCC4CCCCC43C)C1CC/C2=N\O (stereo unspecified) , please. 1

What about this compound? CCCCN(CCCC)CC(O)c1cc(-c2ccc(Cl)c(Cl)c2)nc2c(Cl)cc(Cl)cc12 (stereo unspecified) -1

Item: `C/C(Cc1ccccc1)=N\NC(N)=S` -1

Lookup CCCc1cc(=O)oc2c3c(c4c(c12)OC(C)(C)CC4)O[C@H](C)C(C)[C@@H]3O (stereo partly specified) -1

Then what about the compound `Oc1cc(O)c2c(c1)O[C@@H](c1ccc(O)c(O)c1)[C@H](O)C2` ? -1

Do the same for `c1ccc(-c2cc3c(nn2)[nH]c2ccccc23)cc1` please -1

Queued: CC(=O)OCC(C)CCC(C)COC(C)=O (stereo unspecified) -1

###

assay: NCI Yeast Anticancer Drug Screen. Data for the sgs1 mgt1 strain (AID 161);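 also: 0% = growth of cultures given vehicle only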; settings: S. cerevisiae sgs1 mgt1 strain, at 50.0 µM, hits give high values
The panel holds about 79,000 compounds, 15% with a hit somewhere; the sample as a whole holds those more often.
measurement-type: growth inhibition (%)
Lab book: enter the figure in %, no units written.

Fill in: growth inhibition of `Cc1cc2c(cc1C)-c1nn(-c3ccccc3)c(-c3ccc(Cl)cc3)c1CCO2` is ___ -1.75

Next molecule: `O=C(Cc1cccc(CC(=O)c2ccccc2)n1)c1ccccc1` 18.5

Also need OC1(c2ccccc2)C(c2ccccc2)=C(c2ccccc2)C(c2ccc(CCCCCCCCc3ccc(C4=C(c5ccccc5)C(O)(c5ccccc5)C(c5ccccc5)=C4c4ccccc4)cc3)cc2)=C1c1ccccc1 (stereo unspecified) , thanks. -7.5

And then `NC(=S)N/N=C/c1ccc(Cl)cc1Cl` , what is it? 35.9

What do you have for `CCCCCCCC/C=C\CCCCCCCC(=O)Cl` ? -14

Entry `O=C(OC1CCCCC1)C(=O)OC1CCCCC1` please 1.35

CC(=O)OCC1OC(n2cc(F)c(=O)[nH]c2=O)C(NC(=O)N(CCCl)N=O)C(OC(C)=O)C1OC(C)=O (stereo unspecified) , same question. 12.8

Consider next the molecule `Nc1nc2cc(Cl)c(O)cc2o1` in the same way. -3.5

Let us now turn to CCCCSCC(N)C(=O)OC (stereo unspecified) 4

Now try `OCC(CO)(CO)CO` . -6.8

Then what about the molecule CC(=O)OC1(C#N)CC2OC1C1N=NN(C(=O)OC(C)(C)C)C21 (stereo unspecified) ? 4.8

###

Consider the following molecules; for each one, report its growth inhibition.
test: NCI Yeast Anticancer Drug Screen. Data for the bub3 strain (AID 167); conditions: S. cerevisiae bub3 mutant strain, at 50.0 µM, hits give high values
The panel holds about 79,000 compounds, 15% with a hit somewhere; the sample as a whole holds those more often. Activity calls are given as the source filed them. Cut-off read from the data, not from the text of the source: active = growth inhibition above about 70%; inactive = the rest.

Fill in the blank: the reported growth inhibition of `O=C(Cc1nc2ccccc2o1)C(=O)Nc1ccc(Cl)cc1Cl` is ____. -15.7% (inactive)

What about this molecule? CCC(C)C(N)C1=NC(C(=O)NC(CC(C)C)C(=O)NC(CCC(=O)O)C(=O)NC(C(=O)NC2CCCCNC(=O)C(CC(N)=O)NC(=O)C(CC(=O)O)NC(=O)C(Cc3cnc[nH]3)NC(=O)C(Cc3ccccc3)NC(=O)C(C(C)CC)NC(=O)C(CCCN)NC2=O)C(C)CC)CS1 (stereo not given) -15.2% (inactive)

Field entry: `NNC(=O)C1CC1` -14.1% (inactive)

Then this molecule: `CCOC(=O)c1oc2cc(O)cc(O)c2c(=O)c1-c1ccc(OC)cc1` 3.1% (inactive)

Record: `NC(=O)COc1ccccc1` -0.15% (inactive)

Cool, now `Clc1cc(OCC23CC4CC(CC(C4)C2)C3)nc(OCC23CC4CC(CC(C4)C2)C3)n1` 9% (inactive)

Field entry: `COc1cc2ccnc([C@@H](OC(=O)c3ccccc3)c3ccc(OC)c(OC)c3OC)c2cc1OC` 0.05% (inactive)

Field entry: `N#CCCn1c2ccccc2c2ccccc21` -1.65% (inactive)

Record: `CSc1ccc(NC(=O)COc2ccccc2)cc1` 39.3% (inactive)

And the next one, CCCCOC(=O)C12CCCCC1O2 (stereo not given) ? -29.1% (inactive)

###

I'd be grateful if you could share measured growth inhibition for these entries.
experiment: NCI Yeast Anticancer Drug Screen. Data for the sgs1 mgt1 strain (AID 161);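 also: 0% = growth of cultures given vehicle only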; settings: S. cerevisiae sgs1 mgt1 strain, at 50.0 µM, hits give high values
The panel holds about 79,000 compounds, 15% with a hit somewhere; the sample as a whole holds those more often. Where a SMILES comes first, the peptide text is derived from it. [ ]: non-standard residue; d: D form. The star is where a group is joined. ξ: configuration not given here. ξF = NC(Cc1ccccc1)C(=O)O; Cbz = O=C(OCc1ccccc1)*; Sar = CNCC(=O)O
// units = %; emit number, no label

// returns reported growth inhibition for input `O=C(O)/C=C\Sc1ccccc1C(=O)O` -6.5

What do we get for O=C1C=CC(=O)C2C1C21C2CCCC(C2)C2CCCC1C2 (stereo not given) ? 4.05

Note, next up: COC(=O)C1C(COS(C)(=O)=O)ON2CCC(OC)(OC)C12 (stereo not given) 17.8

Can you handle CN(CC(=O)NC(Cc1ccccc1)C(=O)O)C(=O)OCc1ccccc1 (stereo not given) (Cbz-[Sar]-[ξF]-OH) next? -1.2

Moving on to the next compound: O=C(Nc1cccc([N+](=O)[O-])c1)C(=O)C(C(=O)c1ccccc1-c1ccccc1)C1OC(=O)c2ccccc21 (stereo not given) 17.9

###

Assign growth inhibition to each entry below.
test: NCI Yeast Anticancer Drug Screen. Data for the bub3 strain (AID 167); conditions: S. cerevisiae bub3 mutant strain, at 50.0 µM, hits give high values
About 79,000 compounds went through this panel and 15% of them were active in at least one assay; those are over-represented in the sample as a whole.
Quick reminder: number only, in %, skip the unit.

Would you mind telling me what growth inhibition value was observed for CC(SC(C)C(=O)N/N=C/C=C\c1ccccc1)C(=O)N/N=C\C=C\c1ccccc1 (centres undefined) ? 4.05

Could you do the same for `CCOC(=O)/C=C/C(=O)NN` , please? 0.4

Item: COC(=O)C1CC(=O)N(CCCl)C1 (centres undefined) 11.7

Try this molecule too: `CCCS(=O)(=O)CCC(=O)c1cccs1` -1.85

Now consider O=C(O)C(O)(C1CCCCC1)C1CCC2CCC3CCCC1C32 (centres undefined) and answer again. -11.2

Request: `N#Cc1cnn(-c2ccc(Br)cc2)c1N` -7

Similarly, `C[C@H](CCC(c1ccccc1)c1ccccc1)[C@H]1CC[C@H]2[C@@H]3CC[C@@H]4C[C@H](O)CC[C@]4(C)C3=CC[C@]12C` ? -1.75

Moving on to Cc1cn(C2CC(O)C(CO)O2)c(=O)nc1N1CCCC1 (centres undefined) -0.4

Next record, please: `O=C(NCc1ccccc1)C(c1ccccc1)c1ccccc1` -9.1

Record: `C=C1c2ccccc2N(S(=O)(=O)c2ccc(C)cc2)C12CCCCC2` -0.7

Also need O=C1OC2(C(F)(F)F)Oc3ccccc3CN2C12CCCCC2 (centres undefined) , thanks. 42.5

Okay, and `COc1cccc([N+](=O)[O-])c1` ? -0.9

Can you handle `Nc1c(I)cc([N+](=O)[O-])cc1I` next? 25.9

Let us now turn to `CCOC(=O)c1ccc(Nc2nc3ccc(C(F)(F)F)cc3nc2C(=O)OCC)cc1` -6.2

Please do the same for `CCOC(=O)c1ccc(NC(=O)Nc2ccc(F)c([N+](=O)[O-])c2)cc1` as well. 28.9

And then `O=C(Oc1ccc2c(=O)cc(-c3ccccc3)oc2c1OC(=O)c1ccccc1)c1ccccc1` , what is it? -14.1

Next molecule: COC1OCC(NC(=O)CNC(=O)CCCCCCCCCCCCC(C)C)C(O)C1O (centres undefined) -8.1

Input `Clc1ccc(-c2nnc(-c3ccccc3)o2)cc1Cl` -18.9

Then `Cc1n[nH]c(=O)[nH]c1=O` ? -0.85

What about CSCCC(NCCC#N)C(=O)O (centres undefined) ? -27.9

Same again, this time with `NC(CSS(=O)(=O)O)=NCCSS(=O)(=O)O` -2.4

Try `CC1=N/C(=C\c2ccc(N)cc2)C(=O)N1Nc1nnc(NN2C(=O)/C(=C/c3ccc(N)cc3)N=C2C)c2ccccc12` next. -30.4

Try this molecule next: `N#CCc1nc(-c2cc3ccccc3oc2=O)cs1` 0.75

What about `CCOC(=O)c1cnc2ccccc2c1OCC` ? 2.55

Next molecule: `Cc1cc(C)nc(NC(=O)COc2ccc(Cl)cc2)c1` -37.5

Moving on to CN1C2CC(=O)CC1[C@@H]1OC(c3ccccc3)O[C@H]21 (some centres undefined) 17.6

Next molecule up: `Cc1ccc2nc(-c3ccc(CSC(=N)N)cc3)oc(=O)c2c1` 19.1

Please answer likewise for COC(=O)CNC(=O)C1CSC(C)(C)N1 (centres undefined) -1.05

Please give the result for `COc1cccc2cc(-n3nnc4ccccc43)c(=O)oc12` too. 25.8

Queued: C/C=C/C(O)CCCC (centres undefined) -28.2

Try `Nc1c(Cl)ncnc1NCCCCCCCCCCCCNc1ncnc(Cl)c1N` next. -9.7

What do you get for `O=C(Nc1ccccc1)Oc1ccc(C2CCCCC2)cc1` ? 23.3

Another molecule to look at: `CCCCCCCCCCCCS(=O)(=O)N/N=C(\c1ccccc1Cl)N1CCOCC1` 55.8

How about this molecule: `CCc1ccccc1NC(=O)Sc1cccc(C)c1` 23

Item: `CCCCCCCCCCCCCC/C(C(=O)OC)=C(/O)C(=O)OCC` -57.8

Param item: N#C/C1=C(\C#N)CCC2(C#N)C3C=CC(O3)C2(C#N)CC1 (centres undefined) 8.45

Proceed to `Cc1cc(C)c(C)c(CC(C)(COS(C)(=O)=O)COS(C)(=O)=O)c1C` 5.85

Can you check `CCn1cnc2c(=O)n(C)c(=O)n(C)c21` next? -0.55

Same question, C=CCOc1cc2c(cc1C(C)c1ccc(OCC)cc1)OCO2 (centres undefined) this time -10.8

And for O=C1CC2CCCCC2=C1O (centres undefined) ? -3.1

Can you check `CC(=O)c1cc(C(C)(C)C)ccc1O` next? 26.1

Do the same for `CCOC(=O)N/N=C(\CC)NO` please 12.8

Subsequent entry: COC(OC)c1cccc2c1C1(O)CCC3(CC21)OCCCCO3 (centres undefined) -42.9

Next molecule up: `CCOC(=O)c1ccc(N=Nc2ccc(N(CCC#N)CCC#N)cc2C)cc1` -36.8

Now consider C=C(C)c1nn(-c2ccccc2)c2c1C(=O)CC(C)O2 (centres undefined) and answer again. -7.45

What do you get for `CN(C(=O)c1ccco1)C(=S)N1CCN(c2ccccc2)CC1` ? 13.8

Moving on to `CCOc1ccc2c(c1)nc1ccccc1[n+]2C` 52.4

# iterate: CC(NC(CC12CC3CC(CC(C3)C1)C2)C(N)=O)c1ccccc1 (centres undefined) 15.3

Ok, now `COc1cc(C(=O)O)c(I)c(OC)c1OC` 3.6

// data source = PubChem BioAssay (NCI)
